Biological target: Aldo-keto reductase family 1 member B1 (Rattus norvegicus)
Assay: Inhibition of rat aldose reductase activity at 100 uM.
measured-endpoint: inhibition (%)

{"smiles-entry": "O=C(O)CNS(=O)(=O)c1ccc(NC(=O)CCc2ccccc2)cc1", "reading": 86}
{"smiles-entry": "CN(C)c1ccc(S(=O)(=O)NCC(=O)O)cc1", "reading": 80}
{"smiles-entry": "Nc1ccccc1S(=O)(=O)NCC(=O)O", "reading": 74}
{"smiles-entry": "O=C(O)CNS(=O)(=O)c1ccc(NC(=O)c2ccccc2)cc1", "reading": 81}
{"smiles-entry": "O=C(O)CNS(=O)(=O)c1ccc(NCc2ccccc2)cc1", "reading": 71}
{"smiles-entry": "O=C(O)CNS(=O)(=O)c1ccc(NC(=O)/C=C/c2ccccc2)cc1", "reading": 72}
